target: Recombinant human MASP2 enzyme (fragment corresponding to amino acids 297-686, C-terminal His Tag) (human, UniProt O00187 297-686); assay: cell-based or functional assay
Sequence (O00187 other isoform, or with tags, fused parts or gaps limits assumed): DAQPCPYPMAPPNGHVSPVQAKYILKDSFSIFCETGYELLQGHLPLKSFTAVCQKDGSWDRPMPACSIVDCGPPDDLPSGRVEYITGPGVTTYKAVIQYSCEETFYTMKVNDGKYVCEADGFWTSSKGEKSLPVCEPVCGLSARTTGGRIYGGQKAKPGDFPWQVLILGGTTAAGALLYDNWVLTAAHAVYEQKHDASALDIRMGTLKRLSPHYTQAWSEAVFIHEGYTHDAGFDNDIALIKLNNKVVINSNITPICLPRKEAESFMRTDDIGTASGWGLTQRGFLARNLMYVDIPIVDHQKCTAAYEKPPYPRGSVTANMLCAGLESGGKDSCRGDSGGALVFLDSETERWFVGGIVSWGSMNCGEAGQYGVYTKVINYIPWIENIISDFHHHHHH
Bridge positions count the residues as written; N and C are the ends. Square brackets hold non-standard residues; d marks the D form. Ends that are not written are not given here. Oic = O=C(O)[C@@H]1C[C@@H]2CCCC[C@@H]2N1; tBuAla = CC(C)(C)C[C@H](N)C(=O)O; Pen = CC(C)(S)[C@H](N)C(=O)O; Orn = NCCC[C@H](N)C(=O)O; Sar = CNCC(=O)O
Property name: human MASP2 IC50 (nM)
Express it in nM; write the number only.

Input: Which value of human MASP2 IC50 has been reported for [Orn]ICSRS[tBuAla]PPICI-NH2 (disulfide 3-11; N-terminus assumed; SMILES CC[C@H](C)[C@H](NC(=O)[C@@H]1CSSC[C@H](NC(=O)[C@@H](NC(=O)[C@@H](N)CCCN)[C@@H](C)CC)C(=O)N[C@@H](CO)C(=O)N[C@@H](CCCNC(=N)N)C(=O)N[C@@H](CO)C(=O)N[C@@H](CC(C)(C)C)C(=O)N2CCC[C@H]2C(=O)N2CCC[C@H]2C(=O)N[C@@H]([C@@H](C)CC)C(=O)N1)C(N)=O) [(Orn)-IC+SRS-((tBu)A)-PPIC+I-NH2] in the records?
Output: 170

Input: Which value of human MASP2 IC50 has been reported for [Sar]ICSRSLP[Oic]I[Pen]IPD-NH2 (disulfide 3-11; N-terminus assumed; SMILES CC[C@H](C)[C@H](NC(=O)CNC)C(=O)N[C@H]1CSSC(C)(C)[C@@H](C(=O)N[C@H](C(=O)N2CCC[C@H]2C(=O)N[C@@H](CC(=O)O)C(N)=O)[C@@H](C)CC)NC(=O)[C@H]([C@@H](C)CC)NC(=O)[C@@H]2C[C@@H]3CCCC[C@@H]3N2C(=O)[C@@H]2CCCN2C(=O)[C@H](CC(C)C)NC(=O)[C@H](CO)NC(=O)[C@H](CCCNC(=N)N)NC(=O)[C@H](CO)NC1=O) [((N-Me)G)-IC+SRSLP-(Oic)-I-(Pen)+IPD-NH2] in the records?
Output: 150
